Tested on: MS2 coat protein
Assay: apparent Kd, MS2 coat protein; higher = weaker binding; RNA-MaP array; FMN 200 µM where present
Details: designed as: OFF switch for flavin mononucleotide; no ligand
Classification by apparent Kd | ranges: LOW: < 20 nM; MID: ≥ 20 nM and < 40 nM; HIGH: ≥ 40 nM

Class (by measured apparent Kd) for CGAUAUACGACGGACGGAAACGUACAUGAGGAUCACCCAUGUAGAAGGCGAUCCGCAACGCGGAUUGAGGAUAUAUAGUAUACA MID

Class (by measured apparent Kd) for UGAACAAUGUAGAAGGCCCACAUUUAUAUGUAGGGAGGAUAUACAUGAGGAUCACCCAUGUAAAGAGCAAGAGGAUUUGACAGA LOW

Class (by measured apparent Kd) for UUAUACAUGAGGAUCUCCCAUGACAUGAGGAUCACCCAUGUGCAGGAUAUACGUGUUAUAAUAUAGUAGAAGGGCAGUCUAUAU MID

Class (by measured apparent Kd) for ACAUGAGGAUGAGGAUAUUCAUCCAUGAGGAUAGAAGAAGGCAUACAUGAGGAUCACCCAUGUAUACACAUGAGGAUCCCUUAU HIGH

Class (by measured apparent Kd) for CCGCUAAUAGGAUAUACAUGAGGAUCACCCAUGUCACUCUUCAUUGGUGUCUCUUCAAGUAGAAGGGUUGCUCA MID

Class (by measured apparent Kd) for AUUAAGAAUGAAGGAUAUCUAAGCGUAAACAAAAGAGAAGGUCAAUAGUACAUGAGGAUCACCCAUGUUAGAAUAGAUGGGAUA HIGH

Class (by measured apparent Kd) for UGCCGUGUACAGAAGGGCGACAUGAGGAUCACCCAUGUCUCCUUGUUGGUCGUAGGAUAUGUACCGUGGCUCUCACCUGUGGGA LOW

Class (by measured apparent Kd) for GACAUCGCAGGAUAUUAUUGUUUGUACAUGAGGAUCACCCAUGUUAAUUGGGUUAGUGUUUAAGAAGGGCGGUGUC HIGH

Class (by measured apparent Kd) for GACAUUAUAGGAUAUACAUGAGGAUCACCCAUGUCCGGCGGCCACCGCCAUUCACUGUGUAGAAGGGUAGUUUG HIGH

Class (by measured apparent Kd) for GUACUGUAGUGAGGAUAUACGAGAUCGAUAGAUCGGCGAUCCAUAUAUACAUGAGGAUCACCCAUGUAGAAGGCACUUCAGUAC LOW

Class (by measured apparent Kd) for CGCUAGUCAGGAUAUACGAACAUGUCAAAAGACGUGAAGGGACAUGAGGAUCACCCAUGUAGAAGGGACUAGCC MID

Class (by measured apparent Kd) for GCCGCCCGAUCUGGCUUUUGGGCUAGAAGGGCAUAUGUGGUUCAGGACAUGAGGAUCACCCAUGUGCAGGAUAUAGCCCACCGC MID

Class (by measured apparent Kd) for UGUACGUGAGGAUAUGGACGUAUCGAAGACAAGCUACGAUACCAGAAGGUACAUGAGGAUCACCCAUGUGGUUC HIGH

---

Test system: MS2 coat protein
Test: apparent Kd, MS2 coat protein; higher = weaker binding; RNA-MaP array
Conditions: designed as: ON switch for flavin mononucleotide; no ligand
Would you please tag the item y when its apparent Kd is 20 nM or above, and n when it is below?

Could you tell me if the measured apparent Kd of UUGUUCAGCCUAGGAUAUGGGCAAACAUGAGGAUCACCCAUGUUGAGGCUACCACAAAGCCUGCACCAGAAGGAGGCCUAUACG reaches 20 nM or more? n

Could you tell me if the measured apparent Kd of CCGCUCGGGACAUGAGGAUCACCCAUGUUACCUUGCCGUGAGAGAAGGGACACGGCCAGCUCAUGUCAGGAUAUCUCAGCGUAU reaches 20 nM or more? y

Could you tell me if the measured apparent Kd of UCGAUCAUGUAGAAGGCAUCAGAAACUGGGUGAUGAGGAUAUACGUUAAGACAUGAGGAUCACCCAUGUAAGCAUUGCAAACAC reaches 20 nM or more? y

Could you tell me if the measured apparent Kd of CAUUCCAAGGCGGAGGAUAUUCGGAUCGCCACAUGAGGAUCACCCAUGUACGAGUAGUCUGCAACGAAGAAGGCCGUACGUCACCA reaches 20 nM or more? n

Could you tell me if the measured apparent Kd of UUCGUCGGACACACACAUGAGGAUCACCCAUGUAUCUCAAUCAGAAGGGUAUCACCGGAUAGGGUACAGGAUAUGACUACUAUA reaches 20 nM or more? y

Could you tell me if the measured apparent Kd of ACGUGACACGAGAAGGGUCUUAAAUGUUGAUUGACAGGAUAUCGUUCCCACGAUACAUAGACGGACAUGAGGAUCACCCAUGUG reaches 20 nM or more? y

Could you tell me if the measured apparent Kd of UCAAUAUGUCGUUGACAUGAGGAUCACCCAUGUACUAACUAGCAGGAUAUCGUGAUUAACCCUACCGAGAAGGGCUGUUGUAUU reaches 20 nM or more? y

Could you tell me if the measured apparent Kd of GGCGAGACCCAGAAGGUUCGUCCGGAUCCGCGAUAAUACAUGAGGAUCACCCAUGUAAGACCGGGAAAGGAUAUGGGAACAGCG reaches 20 nM or more? n

Could you tell me if the measured apparent Kd of AAAUGUACGAAGAAGGCUCUGCCACUGGCCGAGAGAGGAUAUUCACACAUGAGGAUCACCCAUGUCGAACAAAGUACACAGAGC reaches 20 nM or more? n

Could you tell me if the measured apparent Kd of ACAGCACAUGAGGAUCACCCAUGUCGACAUGUAUUAGGAUAUGAUCCGCGCUAGACACCAUCAGAAGGAAUACCGA reaches 20 nM or more? y

Could you tell me if the measured apparent Kd of CCUCCUCAUCGAGGAUAUUGGGUCUGACCUCCAUUUAGACAUGAGGAUCACCCAUGUAAAGUGUCCAAGAAGGCGAUACCGGGA reaches 20 nM or more? y

Could you tell me if the measured apparent Kd of AGUCAAAAUUAGAAGGAGCGUUGACCCUGUUAGCUAGGAUAUAAUUCAUGCGAACAUGAGGAUCACCCAUGUAGACGUACCAAC reaches 20 nM or more? y

Could you tell me if the measured apparent Kd of CUCUAAUAAUAUUUCAACAUGAGGAUCACCCAUGUAAUCAGCAAGGAUAUGGUCUUGAUAAGAACCCAGAAGGUGCAUAUAGAU reaches 20 nM or more? y

Could you tell me if the measured apparent Kd of GAAGCGUGAGCAGGAUAUUUAGACAUGAGGAUCACCCAUGUGUGCUAACUAGAAUGCAGGUUUUUAAAGAAGGGCUCCUAGAUU reaches 20 nM or more? n

Could you tell me if the measured apparent Kd of AUUCAAAUAACAGGAUAUGACAUAAACUACGAAUCAGAAGGGUUACAUAAAUCAACAUGAGGAUCACCCAUGUAUACUCCACAA reaches 20 nM or more? n

Could you tell me if the measured apparent Kd of CGAAGAAAACGGAAAUCAAUAACAUGAGGAUCACCCAUGUCUCAGGAUAUAAGAGAAGGAUGUAGUUAGAAGGGAGAGUUAUGU reaches 20 nM or more? y

Could you tell me if the measured apparent Kd of AAUUAUACAUGAGGAUCACCCAUGUCAAAUAUUGAUAGCUGGCAGGAUAUGAUAGAGACGGAAACUCAGAAGGGCCCGAUGAAC reaches 20 nM or more? n

Could you tell me if the measured apparent Kd of UAGAGGACGGGAGGAUAUUCAGGUACAUCAGCCGAAGGCACACAUGAGGAUCACCCAUGUGGGUCGAAGAAGGCCCAGUUGACG reaches 20 nM or more? n

Could you tell me if the measured apparent Kd of UAGCAAUGCGAAGGAUAUGUCGCCCUCCCAAGGACAGAAGGUCGGAACUGUUUACAUGAGGAUCACCCAUGUGGUAAUUAACAA reaches 20 nM or more? y

Could you tell me if the measured apparent Kd of UUGGUUGGGAAAACGAUUUGCACAUGAGGAUCACCCAUGUCGAAGGAUAUGUGGCGCUGUUUGCGACAGAAGGUCGACCUCGCC reaches 20 nM or more? n

Could you tell me if the measured apparent Kd of GUGUACAUGAGGAUCACCCAUGUGAGAGCCACAUAGGGCCAGAAGGAUAUCUAUACUACCGCGUCAGAGAAGGUCUGUUGAUUU reaches 20 nM or more? y

Could you tell me if the measured apparent Kd of CUAAAUUACGCGUAGGAUAUAUUAAAGACUACAUGAGGAUCACCCAUGUCACUUAAACCACGAGAAUAGAAGGACGUAGAAAGAGA reaches 20 nM or more? n

All values here come from the EternaBench riboswitch data.
